Just for reference, paper PMC4603696 is where these values come from.

Target: UniProt P43490
Test: NAMPT activity assay by fluorescence of NMN derivative (HTS system), IC50 determination
Type: biochemical
Parameters: His-tag; made in house; host or cells: E. coli BL21-CodonPlus (DE3)-RIL
Conditions: recombinant human NAMPT, mean ± s.e.; read-out: NAMPT IC50
The label is label 1 for IC50 below 0.05 µM and label 0 for IC50 equal to or exceeding 0.05 µM.

Take a look at these entries with their results.
[[record]]
entry_smiles = "O=S(=O)(c1ccc(NC(=S)NCc2cccnc2)cc1)N1CCN(Cc2ccc(F)cc2)CC1"
class_name = "label 1"

[[record]]
entry_smiles = "CC(C)(C)OC(=O)N1CCN(S(=O)(=O)c2ccc(NC(=S)NCc3cccnc3)cc2)CC1"
class_name = "label 1"

[[record]]
entry_smiles = "N=C(NCc1cccnc1)Nc1ccc(C(=O)N2CCCCC2)cc1"
class_name = "label 0"


Then there is this compound:
Identify whether the compound O=S(=O)(c1ccc(NC(=S)NCc2cccnc2)cc1)N1CCN(Cc2cccc(F)c2)CC1 records IC50 below 0.05 µM. label 1

###

Target: NAMPT (Homo sapiens, UniProt P43490)
Sequence (P43490 whole entry): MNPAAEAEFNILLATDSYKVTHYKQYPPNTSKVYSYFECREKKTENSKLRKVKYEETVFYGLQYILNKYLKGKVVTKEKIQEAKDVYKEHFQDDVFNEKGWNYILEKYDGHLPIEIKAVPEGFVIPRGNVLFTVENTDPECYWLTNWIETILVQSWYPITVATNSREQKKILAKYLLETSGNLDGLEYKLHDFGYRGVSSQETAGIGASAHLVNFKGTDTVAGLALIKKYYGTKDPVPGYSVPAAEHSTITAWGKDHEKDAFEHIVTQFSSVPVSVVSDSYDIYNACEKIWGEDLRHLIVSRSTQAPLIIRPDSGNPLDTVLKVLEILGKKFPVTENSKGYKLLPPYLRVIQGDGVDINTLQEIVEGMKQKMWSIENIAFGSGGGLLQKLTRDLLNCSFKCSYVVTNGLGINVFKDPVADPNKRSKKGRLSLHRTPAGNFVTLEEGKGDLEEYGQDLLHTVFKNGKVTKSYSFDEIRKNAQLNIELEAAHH
Experiment: NAMPT activity assay by fluorescence of NMN derivative (HTS system), IC50 determination
Type: biochemical
Parameters: His-tag; made in house; host or cells: E. coli BL21-CodonPlus (DE3)-RIL
Conditions: recombinant human NAMPT, mean ± s.e.; read-out: NAMPT IC50
Reported values of pIC50 for individual entries
Interpret pIC50 as the negative base-10 log of the concentration measured in mol/L.

[[record]]
entry_smiles = "O=S(=O)(c1ccc(NC(=S)NCc2cccnc2)cc1)N1CCN(Cc2ccc(OC(F)(F)F)cc2)CC1"
value_measured = 7.43

[[record]]
entry_smiles = "O=S(=O)(c1ccc(NC(=S)NCc2cccnc2)cc1)N1CCOCC1"
value_measured = 7.66

[[record]]
entry_smiles = "COc1cccc(/C=C2/N=C(c3ccc(NC(=O)c4cccs4)cc3)OC2=O)c1OC"
value_measured = 6.45

[[record]]
entry_smiles = "Cc1cccc(CN2CCN(S(=O)(=O)c3ccc(NC(=S)NCc4cccnc4)cc3)CC2)c1"
value_measured = 7.77


// pIC50 value for Cc1ccc(CN2CCN(S(=O)(=O)c3ccc(NC(=S)NCc4cccnc4)cc3)CC2)cc1 : 7.98

###

Reported values of IC50 for individual entries
Target: UniProt P43490
Assay: NAMPT activity assay by fluorescence of NMN derivative (HTS system), IC50 determination
Assay type: biochemical
Set-up: His-tag; made in house; host or cells: E. coli BL21-CodonPlus (DE3)-RIL
Conditions: wild type, run beside the mutants; read-out: IC50 against wild-type NAMPT (mutagenesis study)
Return type: number; implicit unit nM.

[[record]]
molecule = "O=S(=O)(c1ccc(NC(=S)NCc2cccnc2)cc1)N1CCN(Cc2ccc(C(F)(F)F)cc2)CC1 [MS34]"
assay_readout = "IC50"
value_measured = 24.8


Please find the next molecule below.
// IC50 value for CC(C)(C)OC(=O)N1CCN(S(=O)(=O)c2ccc(NC(=S)NCc3cccnc3)cc2)CC1 [MS1] : 24.6

###

Reported values of pIC50 for individual entries
Biological target: NAMPT H191A mutant (Homo sapiens, UniProt P43490, H191A)
Construct: His-tag
Sequence (P43490 whole entry H191A): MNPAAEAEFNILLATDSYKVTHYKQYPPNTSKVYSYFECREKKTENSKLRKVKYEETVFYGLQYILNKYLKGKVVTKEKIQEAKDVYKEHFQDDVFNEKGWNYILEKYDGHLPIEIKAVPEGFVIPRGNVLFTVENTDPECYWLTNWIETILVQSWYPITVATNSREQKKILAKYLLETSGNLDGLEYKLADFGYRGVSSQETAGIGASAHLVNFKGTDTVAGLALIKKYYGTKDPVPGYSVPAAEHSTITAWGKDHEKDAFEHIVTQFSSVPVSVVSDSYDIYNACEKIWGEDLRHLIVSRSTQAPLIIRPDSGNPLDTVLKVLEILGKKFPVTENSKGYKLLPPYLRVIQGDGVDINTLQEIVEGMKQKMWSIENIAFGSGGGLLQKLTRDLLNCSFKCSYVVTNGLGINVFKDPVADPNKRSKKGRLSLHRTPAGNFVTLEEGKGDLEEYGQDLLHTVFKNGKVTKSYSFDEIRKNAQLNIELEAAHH
Assay: NAMPT activity assay, H191A mutant
Conditions: same condition as wild-type; read-out: IC50 against H191A mutant
Interpret pIC50 as the negative base-10 log of the concentration measured in mol/L.

[[record]]
compound = "O=S(=O)(c1ccc(NC(=S)NCc2cccnc2)cc1)N1CCN(Cc2ccc(C(F)(F)F)cc2)CC1 [MS34]"
value_measured = 7.60


Please find the next compound below.
// pIC50 value for CC(C)(C)OC(=O)N1CCN(S(=O)(=O)c2ccc(NC(=S)NCc3cccnc3)cc2)CC1 [MS1] : 7.60

###

Target: NAMPT I309Y mutant (Homo sapiens, UniProt P43490, I309Y)
Construct: His-tag
Sequence (P43490 whole entry I309Y): as the sequence (P43490 whole entry H191A) above, with A191H, I309Y counted along it
Test: NAMPT activity assay, I309Y mutant
Settings: same condition as wild-type; read-out: IC50 against I309Y mutant
Reported values of pIC50 for individual entries
Interpret pIC50 as the negative base-10 log of the concentration measured in mol/L.

// pIC50 value for O=S(=O)(c1ccc(NC(=S)NCc2cccnc2)cc1)N1CCN(Cc2ccc(C(F)(F)F)cc2)CC1 : 7.24

// pIC50 value for CC(C)(C)OC(=O)N1CCN(S(=O)(=O)c2ccc(NC(=S)NCc3cccnc3)cc2)CC1 : 7.23

###

System: HepG2 cells
Experiment: Sulforhodamine B protein staining (SRB) assay in HepG2
Assay type: cell-based, human
Settings: Homo sapiens, HepG2, read-out: anti-proliferation IC50, initial screen, HepG2, SRB, 10-fold concentration gradient
pIC50: −log10 of the molar value.
Assay Readout: pIC50

// pIC50 value for O=S(=O)(c1ccc(NC(=S)NCc2cccnc2)cc1)N1CCCCC1 : > 5.30

###

Tested on: NAD level of HepG2 cells
Test: Cellular NAD level, spectrophotometric enzymatic cycling assay
Format: cell-based, human
Details: Homo sapiens; HepG2, 24 hours treatment; read-out: IC50 for reducing NAD level
Assay Readout: IC50 (nM)
Return type: number; implicit unit nM.

// IC50 value for O=S(=O)(c1ccc(NC(=S)NCc2cccnc2)cc1)N1CCCCC1 : 93.7

###

System: HepG2 cells
Experiment: Cell counting kit-8 (CCK-8) cell viability assay in HepG2
Type: cell-based, human
Details: Homo sapiens, HepG2, 48 h, read-out: CCK-8 assay in HepG2: IC50
Assay Readout: IC50
Answer format: value, then unit.

// IC50 value for O=S(=O)(c1ccc(NC(=S)NCc2cccnc2)cc1)N1CCCCC1 : 703 nM

###

Biological target: NAMPT (Homo sapiens)
Test: NAMPT activity assay by fluorescence of NMN derivative (HTS system), IC50 determination
Type: biochemical
Design: His-tag; made in house; host or cells: E. coli BL21-CodonPlus (DE3)-RIL
Details: recombinant human NAMPT, values given in μM; read-out: NAMPT IC50
Reported values of IC50 for individual entries

Here is how some compounds turned out for IC50.
[[record]]
entry_smiles = "CCOC(=S)Nc1ccc(C(=O)N2CCCCC2)cc1"
value_measured = "> 150 µM"

[[record]]
entry_smiles = "CCOC(=O)N=C(NCc1cccnc1)Nc1ccc(S(=O)(=O)N2CCCCC2)cc1"
value_measured = "> 166 µM"


// IC50 value for N=C(NCc1cccnc1)Nc1ccc(C(=O)N2CCCCC2)cc1 : 14.5 µM

###

Reported values of IC50 for individual entries
Molecular target: NAMPT (Homo sapiens)
Assay: NAMPT activity assay by fluorescence of NMN derivative (HTS system), IC50 determination
Type: biochemical
Set-up: His-tag; made in house; host or cells: E. coli BL21-CodonPlus (DE3)-RIL
Details: recombinant human NAMPT, mean ± s.e.; read-out: NAMPT IC50
Return type: number; implicit unit nM.

// IC50 value for O=S(=O)(c1ccc(NC(=S)NCc2cccnc2)cc1)N1CCN(Cc2c(F)cccc2F)CC1 [MS23] : 9.9

// IC50 value for Nc1ccc(CN2CCN(S(=O)(=O)c3ccc(NC(=S)NCc4cccnc4)cc3)CC2)cc1 [MS38] : 19.9

// IC50 value for O=S(=O)(c1ccc(NC(=S)NCc2cccnc2)cc1)N1CCNCC1 [MS2] : 84.5

// IC50 value for O=C(NCc1ccc(S(=O)(=O)NCc2cc(F)cc3c2OCOC3)s1)c1ccc(Cl)cc1 [compound 4162] : 777

// IC50 value for COc1ccc(CCNC(=O)c2cc3ccccc3s2)cc1OC [compound 2161] : 149

// IC50 value for O=S(=O)(c1ccc(NC(=S)NCc2cccnc2)cc1)N1CCN(Cc2ccncc2)CC1 [MS44] : 13.7

###

Reported values of pIC50 for individual entries
Target: NAMPT (Homo sapiens)
Test: NAMPT activity assay by fluorescence of NMN derivative (HTS system), IC50 determination
Format: biochemical
Parameters: His-tag; made in house; host or cells: E. coli BL21-CodonPlus (DE3)-RIL
Conditions: recombinant human NAMPT, mean ± s.e.; read-out: NAMPT IC50
Interpret pIC50 as the negative base-10 log of the concentration measured in mol/L.

Here is how some compounds turned out for pIC50.
[[record]]
compound = "O=C(Nc1ccc(S(=O)(=O)N2CCCCC2)cc1)OCc1cccnc1 [MS17]"
assay_readout = "pIC50"
value_measured = 7.37

[[record]]
compound = "CC(=O)N1CCN(S(=O)(=O)c2ccc(NC(=S)NCc3cccnc3)cc2)CC1 [MS5]"
assay_readout = "pIC50"
value_measured = 7.39

[[record]]
compound = "O=C1C[C@H](c2ccc(O)cc2)Oc2c1c(O)cc(O)c2[C@@H]1C(=O)c2c(O)cc(O)cc2O[C@H]1c1ccc(O)cc1 [compound 3909]"
assay_readout = "pIC50"
value_measured = 6.30

[[record]]
compound = "O=S(=O)(c1ccc(NC(=S)NCc2cccnc2)cc1)N1CCN(Cc2ccc3ccccc3c2)CC1 [MS33]"
assay_readout = "pIC50"
value_measured = 7.53

[[record]]
compound = "O=S(=O)(c1ccc(NC(=S)NCc2cccnc2)cc1)N1CCN(Cc2cccnc2)CC1 [MS45]"
assay_readout = "pIC50"
value_measured = 8.01


// pIC50 value for O=S(=O)(c1ccc(NC(=S)NCc2cccnc2)cc1)N1CCN(C2CCCCC2)CC1 [MS8] : 7.85

// pIC50 value for O=S(=O)(c1ccc(NC(=S)NCc2cccnc2)cc1)N1CCN(Cc2cccs2)CC1 [MS43] : 7.41

// pIC50 value for O=S(=O)(c1ccc(NC(=S)NCc2cccnc2)cc1)N1CCN(Cc2ccco2)CC1 [MS42] : 7.72
